# TESTED_ON: (recombinant) catalytic domain of human Bub1 (amino acids 704-1085) (Homo sapiens (Human), UniProt O43683)
# Sequence (O43683 704-1085): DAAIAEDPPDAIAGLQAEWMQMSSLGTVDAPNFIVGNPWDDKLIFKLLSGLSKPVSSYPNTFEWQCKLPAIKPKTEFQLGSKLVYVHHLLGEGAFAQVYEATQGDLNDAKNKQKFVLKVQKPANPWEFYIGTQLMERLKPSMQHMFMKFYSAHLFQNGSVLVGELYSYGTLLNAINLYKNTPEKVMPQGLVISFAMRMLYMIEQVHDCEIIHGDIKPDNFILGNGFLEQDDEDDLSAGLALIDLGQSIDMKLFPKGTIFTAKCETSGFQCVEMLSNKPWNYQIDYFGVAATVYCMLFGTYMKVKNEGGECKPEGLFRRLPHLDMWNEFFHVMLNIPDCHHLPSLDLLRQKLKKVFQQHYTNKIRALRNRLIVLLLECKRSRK
# ASSAY_NAME: Bub1 kinase assay (TR-FRET)
# CONDITION_PARAMETERS: ATP 10 μM, peptide substrate 1 μM, 60 min at 22° C., read-out: Inhibition of Bub1 kinase IC50
Kindly state IC50 for each of the entries shown.
Record the value in µM, omitting the unit from your answer.

**Q:** Return the recorded IC50 value; entry: COC(=O)Nc1cc(-c2[nH]c3c(c2Nc2ccccc2)C(=O)[C@@H]2C[C@H]3C2(C)C)ccn1 (relative stereo)
**A:** 0.068

**Q:** Supply measured IC50 of C[C@@]12C[C@@H]1C(=O)c1c([nH]c(-c3ccnc(NC(=O)C4(F)CC4)c3)c1Nc1ccccc1)C2=O (relative stereo) in your reply.
**A:** 0.133

**Q:** For the compound O=c1ccccc2[nH]c(-c3ccncc3)c(Nc3ccccc3)c12 , report IC50.
**A:** 0.008

**Q:** Provide only the value of recorded IC50 for CC1CCC(=O)c2c([nH]c(-c3ccnc(N)c3)c2Nc2ccccc2)C1 (racemic)
**A:** 0.025

**Q:** State its IC50: C[C@@]12C[C@@H]1C(=O)c1c([nH]c(-c3ccnc(NC(=O)C4CC4)c3)c1Nc1ccccc1)C2=O (relative stereo)
**A:** 0.03

**Q:** Look up and report measured IC50 for this entry: CCNC(=O)Nc1cc(-c2[nH]c3c(c2Nc2ccccc2)C(=O)[C@@H]2C[C@H]3C2(C)C)ccn1 (relative stereo)
**A:** 0.375

**Q:** Give the measured IC50 for CC1(C)[C@@H]2C[C@H]1C(=O)c1c2[nH]c(-c2ccnc(NC(=O)C3CC3)c2)c1Nc1ccccc1 (relative stereo)
**A:** 0.063

**Q:** Answer with reported IC50 of O=C1c2c([nH]c(-c3ccncc3)c2Nc2ccccc2)C[C@H]2C[C@@H]12 (relative stereo)
**A:** 0.007
